# System: HeLa
# assay-procedure: Selectivity index, ratio of Ki for human cloned adenosine A2A receptor expressed in human HeLa cells to Ki for human cloned adenosine A2B receptor expressed in HEK293 cells
# Format: cell-based
Response key: criterion met means Ratio Ki >= 3; criterion not met means Ratio Ki < 3.

mol-smiles	assigned-label
CCCn1c(=O)c2[nH]c(-c3ccc([N+](=O)[O-])cc3)c(O)c2n(CCC)c1=O	criterion not met
CCCn1c(=O)c2[nH]c(-c3ccc(O)cc3)c(O)c2n(CCC)c1=O	criterion met
CCCn1c(=O)c2c(cc(-c3ccc(C)cc3)n2O)n(CCC)c1=O	criterion not met
CCCn1c(=O)c2[nH]c(-c3ccc(OC)cc3)cc2n(CCC)c1=O	criterion not met
CCCn1c(=O)c2c(cc(-c3ccc(O)cc3)n2O)n(CCC)c1=O	criterion not met
Cn1c(=O)c2[nH]c(-c3ccccc3)c(O)c2n(C)c1=O	criterion met
CCCn1c(=O)c2[nH]c(-c3ccc(N)cc3)c(O)c2n(CCC)c1=O	criterion met
Cn1c(=O)c2[nH]c(-c3ccccc3)cc2n(C)c1=O	criterion not met
CCCn1c(=O)c2[nH]c(-c3ccc(S(C)(=O)=O)cc3)c(O)c2n(C)c1=O	criterion met
CCCn1c(=O)c2c(cc(-c3ccc(N)cc3)n2O)n(CCC)c1=O	criterion not met
CCCn1c(=O)c2[nH]c(-c3ccccc3)cc2n(CCC)c1=O	criterion not met

----------
# assay-procedure: Methanol-water partition coefficient, log K by RP-HPLC
# Assay type: physicochemical
measurement-label: log K

mol-smiles	measurement-label	test-result
CCCn1c(=O)c2[nH]c(-c3ccc(OCC(=O)N4CCN(Cc5ccccc5)CC4)cc3)cc2n(CCC)c1=O	log K	0.93
CCCn1c(=O)c2[nH]c(-c3ccc(C)cc3)cc2n(CCC)c1=O	log K	0.97
CCCn1c(=O)c2[nH]c(-c3ccc(N)cc3)cc2n(CCC)c1=O	log K	1.21
CCCn1c(=O)c2[nH]c(-c3ccc(OC)cc3)cc2n(CCC)c1=O	log K	0.71
CCCn1c(=O)c2[nH]c(-c3ccc(N)cc3)c(O)c2n(CCC)c1=O	log K	0.96
CCCn1c(=O)c2[nH]c(-c3ccc(OC)cc3)c(O)c2n(CCC)c1=O	log K	0.51
CCCn1c(=O)c2[nH]c(-c3ccc(C)cc3)c(O)c2n(CCC)c1=O	log K	0.83

----------
Observed Ki, system Adenosine receptor A3 (Homo sapiens, UniProt P0DMS8).
measurement-label: Ki (nM)

mol-smiles	measurement-label	test-result
CCCn1c(=O)c2[nH]c(-c3ccc(S(C)(=O)=O)cc3)c(O)c2n(CCC)c1=O	Ki	295
CCCn1c(=O)c2[nH]c(-c3ccccc3)cc2n(CCC)c1=O	Ki	96
CCCn1c(=O)c2[nH]c(-c3ccccc3)c(O)c2n(CCC)c1=O	Ki	182
CCCn1c(=O)c2[nH]c(-c3ccc(OCC(=O)Nc4ccc(Br)cc4)cc3)c(O)c2n(CCC)c1=O	Ki	1290
CCCn1c(=O)c2[nH]c(-c3ccc(OCC(=O)Nc4ccc(Br)cc4)cc3)cc2n(CCC)c1=O	Ki	199

----------
Quick reference: solubility kinetic of the listed items.
# assay-procedure: Solubility in 50 mM Tris/HCl buffer at pH 7.4 by turbidimetric method
# Type: physicochemical
measurement-label: solubility kinetic (µg/mL)

mol-smiles	measurement-label	unit-string	test-result
CCCn1c(=O)c2[nH]c(-c3ccc(OC)cc3)c(O)c2n(CCC)c1=O	solubility kinetic	µg/mL	120
CCCn1c(=O)c2[nH]c(-c3ccc(OCC(=O)N4CCN(Cc5ccccc5)CC4)cc3)cc2n(CCC)c1=O	solubility kinetic	µg/mL	2
CCCn1c(=O)c2[nH]c(-c3ccc(N)cc3)cc2n(CCC)c1=O	solubility kinetic	µg/mL	6
CCCn1c(=O)c2[nH]c(-c3ccc(C)cc3)c(O)c2n(CCC)c1=O	solubility kinetic	µg/mL	30
CCCn1c(=O)c2[nH]c(-c3ccc(C)cc3)cc2n(CCC)c1=O	solubility kinetic	µg/mL	6
CCCn1c(=O)c2[nH]c(-c3ccc(N)cc3)c(O)c2n(CCC)c1=O	solubility kinetic	µg/mL	30
CCCn1c(=O)c2[nH]c(-c3ccc(OC)cc3)cc2n(CCC)c1=O	solubility kinetic	µg/mL	28
